Examples of molecules with documented log10 of IC50 follow.
Molecular target: Tyrosine-protein phosphatase non-receptor type 1 (Homo sapiens, UniProt P18031)
Sequence (P18031 whole entry): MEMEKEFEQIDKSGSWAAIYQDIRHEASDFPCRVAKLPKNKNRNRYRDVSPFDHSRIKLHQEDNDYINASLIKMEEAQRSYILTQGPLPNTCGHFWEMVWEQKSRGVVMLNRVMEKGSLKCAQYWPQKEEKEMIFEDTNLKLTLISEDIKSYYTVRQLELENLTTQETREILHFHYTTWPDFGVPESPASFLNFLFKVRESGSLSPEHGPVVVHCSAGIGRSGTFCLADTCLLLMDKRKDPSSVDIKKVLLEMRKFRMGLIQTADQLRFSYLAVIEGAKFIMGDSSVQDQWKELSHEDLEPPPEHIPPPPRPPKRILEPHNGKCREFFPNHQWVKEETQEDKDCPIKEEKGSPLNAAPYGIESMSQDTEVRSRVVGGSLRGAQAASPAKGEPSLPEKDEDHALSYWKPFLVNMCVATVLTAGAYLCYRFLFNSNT
Assay: Inhibitory potency for the protein tyrosine phosphatase (PTP 1B)-catalyzed hydrolysis of p-nitrophenol phosphate
Type: functional
Base-10 log of IC50, unit µM.

Record excerpt, results attached:
Problem: Quick one: log10 of IC50 of `O=P(O)(O)C(F)(F)c1ccc2ccccc2c1` ?
Solution: 2.86

Problem: Param item = `COc1ccc(-c2ccc(C(F)(F)P(=O)(O)O)cc2)cc1` ; retrieve measured log10 of IC50.
Solution: 2.65

Problem: Would you kindly share the measured log10 of IC50 for `CS(=O)(=O)N(c1cc(C(F)(F)P(=O)(O)O)ccc1C#Cc1ccccc1)S(C)(=O)=O` ?
Solution: 1.95

Problem: Fill in the blank: the reported log10 of IC50 of `O=P(O)(O)C(F)(F)c1ccc(-c2ccccc2)cc1` is ____.
Solution: 2.89

Problem: # lookup: log10 of IC50 of `C#Cc1cccc(C(F)(F)P(=O)(O)O)c1`
Solution: 1.28

Then there is this molecule:
Problem: Would you kindly share the measured log10 of IC50 for `CS(=O)(=O)N(c1cc(C(F)(F)P(=O)(O)O)ccc1/C=C/c1ccccc1)S(C)(=O)=O` ?
Solution: 1.76

###

target: Tyrosine-protein phosphatase non-receptor type 1 (Homo sapiens, UniProt P18031); assay: Inhibitory potency for the protein tyrosine phosphatase (PTP 1B)-catalyzed hydrolysis of p-nitrophenol phosphate; format: functional
property.measured: pIC50
// returns pIC50 (minus log10 of molar concentration), number only

Previously resolved entries follow.
Problem: Can you look up the measured pIC50 of `O=P(O)(O)C(F)(F)c1cccc(/C=C/c2ccccc2)c1` for me?
Solution: 3.41

Problem: Endpoint output: pIC50 of `O=P(O)(O)C(F)(F)c1ccc(/C=C/c2ccccc2)cc1` . Value?
Solution: 3.35

Problem: For the molecule shown here, `C#Cc1ccc(C(F)(F)P(=O)(O)O)cc1` , give the reported pIC50.
Solution: 4.11

Problem: Return reported pIC50; argument: `O=P(O)(O)C(F)(F)c1cccc(C#Cc2ccccc2)c1`
Solution: 3.87

Problem: // pIC50 lookup, key: `O=P(O)(O)C(F)(F)c1ccc(C#Cc2ccccc2)cc1`
Solution: 3.89

---
Problem: Fill in the blank: the reported pIC50 of `CS(=O)(=O)Nc1cc(C(F)(F)P(=O)(O)O)ccc1C#Cc1ccccc1` is ____.
Solution: 3.78

Problem: Give its pIC50 value. Item: `CS(=O)(=O)Nc1cc(C(F)(F)P(=O)(O)O)ccc1/C=C/c1ccccc1`
Solution: 3.76

# credit: ChEMBL document CHEMBL1131941
